Tested on: MDA-MB-436 breast cancer
Assay: MTT assay, proliferation inhibition
Assay type: cell-based
Settings: Homo sapiens, read-out: Proliferation inhibition rate
Classification field: enter 1 (yes) for inhibition at 1 µM values not below 80%, 0 (no) for values below it.

Some solved entries appear below for comparison.
- givenSmiles: "CO[C@H]1C(=O)[C@]2(C)[C@@H](OC(=O)N(C)C)C[C@H]3OC[C@@]3(OC(C)=O)[C@H]2[C@H](OC(=O)c2ccccc2)[C@]2(O)C[C@H](OC(=O)[C@H](O)[C@@H](NC(=O)OC(C)(C)C)c3ccccc3)C(C)=C1C2(C)C"
  answerLabel: "1 (yes)"
- givenSmiles: "CO[C@H]1C(=O)[C@]2(C)C=C[C@@H](O)[C@](CO)(OC(C)=O)[C@H]2[C@H](OC(=O)c2ccccc2)[C@]2(O)C[C@H](OC(=O)[C@H](O)[C@@H](NC(=O)OC(C)(C)C)c3ccccc3)C(C)=C1C2(C)C"
  answerLabel: "1 (yes)"
- givenSmiles: "CO[C@H]1C[C@H]2OC[C@@]2(OC(C)=O)[C@H]2[C@H](OC(=O)c3ccccc3)[C@]3(O)C[C@H](OC(=O)[C@H](O)[C@@H](NC(=O)c4ccccc4)c4ccccc4)C(C)=C([C@@H](OC(=O)N(C)C)C(=O)[C@]12C)C3(C)C"
  answerLabel: "1 (yes)"

Record CO[C@H]1C[C@H]2OC[C@@]2(OC(C)=O)[C@H]2[C@H](OC(=O)c3ccccc3)[C@]3(O)C[C@H](OC(=O)[C@H](O)[C@@H](NC(=O)OC(C)(C)C)c4ccccn4)C(C)=C([C@@H](OC(=O)N(C)C)C(=O)[C@]12C)C3(C)C ; criterion: inhibition at 1 µM no lower than 80%. Met? 0 (no)

Record COC(=O)O[C@H]1C[C@H]2OC[C@@]2(OC(C)=O)[C@H]2[C@H](OC(=O)c3ccccc3)[C@]3(O)C[C@H](OC(=O)[C@H](O)[C@@H](NC(=O)OC(C)(C)C)c4ccccn4)C(C)=C([C@@H](OC)C(=O)[C@]12C)C3(C)C ; criterion: inhibition at 1 µM no lower than 80%. Met? 1 (yes)

Record COC(=O)O[C@H]1C(=O)[C@]2(C)[C@@H](OC)C[C@H]3OC[C@@]3(OC(C)=O)[C@H]2[C@H](OC(=O)c2ccccc2)[C@]2(O)C[C@H](OC(=O)[C@H](O)[C@@H](NC(=O)N(C)C)c3ccccc3)C(C)=C1C2(C)C ; criterion: inhibition at 1 µM no lower than 80%. Met? 0 (no)

Record CO[C@H]1C(=O)[C@]2(C)[C@@H](OC(=O)N(C)C)C[C@H]3OC[C@@]3(OC(C)=O)[C@H]2[C@H](OC(=O)c2ccccc2)[C@]2(O)C[C@H](OC(=O)[C@H](O)[C@@H](NC(=O)OC(C)(C)C)c3ccccn3)C(C)=C1C2(C)C ; criterion: inhibition at 1 µM no lower than 80%. Met? 0 (no)
